Reported APOE RNA (% UTC) is given for each of the following substances.
# System: human APOE RNA
# Test summary: Dose-dependent inhibition of human APOE RNA in HepG2 cells, electroporation, 24 hours (Example 6)
# Type: cell-based
# Experimental conditions: 82 nM
Strand notation (5' to 3'): a small letter for the sugar, then the base; units joined by * are phosphorothioate-linked, units joined directly phosphodiester-linked; [ ] holds rarer units or linkages, { } end groups; capitals alone tell only the bases. [ms] = mesyl phosphoramidate linkage; e = 2'-O-(2-methoxyethyl) (MOE); k = constrained ethyl (cEt); [5mC] = 5-methylcytosine; d = 2'-deoxy (DNA)
Numeric answer only, unit % UTC assumed.

Substance	APOE RNA (% UTC)
1693105: 6-10-4 MOE gapmer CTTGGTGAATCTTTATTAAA, linkages sosssszzzssssszssss (e[5mC]*eTeT*eG*eG*eT*dG[ms]dA[ms]dA[ms]dT*d[5mC]*dT*dT*dT*dA[ms]dT*eT*eA*eA*eA) [compound 1693105]	91
1736517 (e[5mC]*eTeTeG*kG*kT*dG[ms]dA[ms]dA[ms]dT*d[5mC]*dT*dT*dT*dA[ms]dT*eT*eA*eA*eA; antisense) [Compound 1736517]	84
1736519: 6-10-4 MOE gapmer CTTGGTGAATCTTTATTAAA, linkages sososszzzssssssssss (e[5mC]*eTeT*eGeG*eT*dG[ms]dA[ms]dA[ms]dT*d[5mC]*dT*dT*dT*dA*dT*eT*eA*eA*eA) [compound 1736519]	75
1736532 (e[5mC]*eT*eT*eG*kG*kTdG[ms]dA[ms]dA[ms]dT*d[5mC]*dT*dT*dT*dA[ms]dT*eT*eA*eA*eA; antisense) [Compound 1736532]	71
1736520: 6-10-4 MOE gapmer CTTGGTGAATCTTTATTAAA, linkages sossoszzzssssssssss (e[5mC]*eTeT*eG*eGeT*dG[ms]dA[ms]dA[ms]dT*d[5mC]*dT*dT*dT*dA*dT*eT*eA*eA*eA) [compound 1736520]	72

Sample 1736521: 6-10-4 MOE gapmer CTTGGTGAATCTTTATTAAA, linkages sosssszzzsssssssoss (e[5mC]*eTeT*eG*eG*eT*dG[ms]dA[ms]dA[ms]dT*d[5mC]*dT*dT*dT*dA*dT*eTeA*eA*eA) [compound 1736521] ; APOE RNA (% UTC) observed: 69

For reference, reported APOE RNA (% UTC) for 1693101: 6-10-4 MOE gapmer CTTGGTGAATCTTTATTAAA, linkages sssssozzzssssszssss (e[5mC]*eT*eT*eG*eG*eTdG[ms]dA[ms]dA[ms]dT*d[5mC]*dT*dT*dT*dA[ms]dT*eT*eA*eA*eA) [compound 1693101] stands at 111

Per the record, 1736524: 6-10-4 MOE gapmer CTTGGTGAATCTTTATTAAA, linkages sssooozzssssssssoss (e[5mC]*eT*eT*eGeGeTdG[ms]dA[ms]dA*dT*d[5mC]*dT*dT*dT*dA*dT*eTeA*eA*eA) [compound 1736524] has APOE RNA (% UTC) of 91

For this substance ( 1736514 (e[5mC]*eTeT*eG*kG*kT*dG[ms]dA[ms]dA[ms]dT*d[5mC]*dT*dT*dT*dA[ms]dT*eT*eA*eA*eA; antisense) [Compound 1736514] ), measured APOE RNA (% UTC) is 77

Recorded result, 1736527: 6-10-4 MOE gapmer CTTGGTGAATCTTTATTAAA, linkages sssooozzsssssssssss (e[5mC]*eT*eT*eGeGeTdG[ms]dA[ms]dA*dT*d[5mC]*dT*dT*dT*dA*dT*eT*eA*eA*eA) [compound 1736527] , APOE RNA (% UTC): 97

Value of measured APOE RNA (% UTC) for the entry 1736536 (e[5mC]*eT*eT*eG*kGkT*dG[ms]dA[ms]dA[ms]dT*d[5mC]*dT*dT*dT*dA[ms]dT*eT*eA*eA*eA; antisense) [Compound 1736536] : 79

Measured APOE RNA (% UTC), 1736533 (e[5mC]*eT*eT*eG*eGeT*dG[ms]dA[ms]dA[ms]dT*d[5mC]*dT*dT*dT*dA[ms]dT*kT*eA*eA*eA; antisense) [Compound 1736533] : 74

// APOE RNA (% UTC) value for 1736531 (e[5mC]*eT*eT*eG*eG*kTdG[ms]dA[ms]dA[ms]dT*d[5mC]*dT*dT*dT*dA[ms]dT*eT*eA*eA*eA; antisense) [Compound 1736531] : 86

APOE RNA (% UTC) recorded for this substance, 1736513 (e[5mC]*eTeT*eG*eG*kT*dG[ms]dA[ms]dA[ms]dT*d[5mC]*dT*dT*dT*dA[ms]dT*eT*eA*eA*eA; antisense) [Compound 1736513] , is 89
